Value type: log10 IC50 (log10 of the value in µM)
Values reflect log10 of reported IC50 (µM).

Inquiry: What is its log10 IC50 for metalloelastase (MMP-12) (Homo sapiens, UniProt P39900)? Entry: CC(C)(C)c1ccc2c(c1)CN(S(=O)(=O)CC(COCc1ccccc1)N(O)C=O)CC2 (stereo not shown)
Reply text: -0.93

Inquiry: What is its log10 IC50 for metalloelastase (MMP-12) (Homo sapiens, UniProt P39900)? Entry: COc1cc2c(cc1OC)CN(S(=O)(=O)CC(CCc1ccccc1)N(O)C=O)CC2 (stereo not shown)
Reply text: -1.04

Inquiry: What is its log10 IC50 for metalloelastase (MMP-12) (Homo sapiens, UniProt P39900)? Entry: O=CN(O)C(CS(=O)(=O)N1CCc2ccc(-c3ccsc3)cc2C1)C1CCCC1 (stereo not shown)
Reply text: -2.05

Inquiry: What is its log10 IC50 for metalloelastase (MMP-12) (Homo sapiens, UniProt P39900)? Entry: O=CN(O)C(CS(=O)(=O)N1CCc2ccc(C(F)(F)F)cc2C1)C1CC1 (stereo not shown)
Reply text: -1.28

Inquiry: What is its log10 IC50 for metalloelastase (MMP-12) (Homo sapiens, UniProt P39900)? Entry: CC(C)C(CS(=O)(=O)N1CCc2cc(Cl)c(Cl)cc2C1)N(O)C=O (stereo not shown)
Reply text: -2.39

Inquiry: What is its log10 IC50 for metalloelastase (MMP-12) (Homo sapiens, UniProt P39900)? Entry: CC(C)(Cc1ccccc1)C(CS(=O)(=O)N1CCc2cc(C(F)(F)F)ccc2C1)N(O)C=O (stereo not shown)
Reply text: -1.40

Inquiry: What is its log10 IC50 for metalloelastase (MMP-12) (Homo sapiens, UniProt P39900)? Entry: O=CN(O)C(COCc1ccccc1)CS(=O)(=O)N1CCc2ccc(Cl)cc2C1 (stereo not shown)
Reply text: -2.35

Inquiry: What is its log10 IC50 for metalloelastase (MMP-12) (Homo sapiens, UniProt P39900)? Entry: O=CN(O)C(CS(=O)(=O)N1Cc2ccccc2C1)C1CC1 (stereo not shown)
Reply text: -1.70

Inquiry: What is its log10 IC50 for metalloelastase (MMP-12) (Homo sapiens, UniProt P39900)? Entry: O=CN(O)C(CCc1ccccc1)CS(=O)(=O)N1CCc2ccccc2C1 (stereo not shown)
Reply text: -1.57

Inquiry: What is its log10 IC50 for metalloelastase (MMP-12) (Homo sapiens, UniProt P39900)? Entry: O=CN(O)C(CS(=O)(=O)N1CCc2ccccc2C1)c1cccs1 (stereo not shown)
Reply text: -1.80
